experiment: duplex melting temperature (HRM, EvaGreen); higher = more stable duplex; conditions: duplex concentration 10 µM; backbone: PO-PO (both strands phosphodiester DNA)
Value kind: duplex melting temperature (°C)

Record sequence	Value kind	Numeric result
CGATTTTGTCAAGCCT	duplex melting temperature	68.6
CGACATGTATGGCACAG	duplex melting temperature	71.9
CCGTTGCTGCTAGG	duplex melting temperature	70.5
CTGTAAGGCGATATGTT	duplex melting temperature	68.4
GTGAGCAGAAGGGGTT	duplex melting temperature	71.2
GAACCGTTGATGATCTC	duplex melting temperature	69.2

###

test: duplex melting temperature (HRM, EvaGreen); higher = more stable duplex; conditions: duplex concentration 2.5 µM; backbone: PO-PO (both strands phosphodiester DNA)
Value kind: duplex melting temperature (°C)

Record sequence	Value kind	Numeric result
TTGTAGTTGACGTTTGTGATTTAGTGAATT	duplex melting temperature	76.6
AGCTGAGCCTGCCGCC	duplex melting temperature	77.3
GAGCAGAAGGGGTTGT	duplex melting temperature	66.2
CCACTAGCGGCGCCGTT	duplex melting temperature	78.3
CTGTAAGGCGATATGTT	duplex melting temperature	64
CCGCTCAGAGTAGAGA	duplex melting temperature	65.5
TGCCATGTTGAAAACC	duplex melting temperature	63.6
CGTGTGGATAATTAGCT	duplex melting temperature	64.1
TCTCGCGGTTCCATTA	duplex melting temperature	67.1
AGCACGGTGGTACAACA	duplex melting temperature	67.6
GAACTGCCACTACCAA	duplex melting temperature	64.9
CGATTTTGTCAAGCCT	duplex melting temperature	64.8
CGGCGCGCTG	duplex melting temperature	66.4
CCCAGGCCTCGGATTTA	duplex melting temperature	71
CACAGCGACATGTATGG	duplex melting temperature	68.2
